B1: TRAF3IP2 (parent)
chain: PGQPLPGASVRGLHPVQKVILNYP

Variants of: B1
assayInfo: protein stability index of a GFP-peptide fusion (GPS, HEK-293T) (PSI 1-6); higher = more stable;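 further: lentivirally expressed fusions sorted by FACS into six bins by GFP to DsRed ratio, PSI derived from sequencing read proportions per bin multiplied by bin number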
particulars: c terminus: a fixed tail appended
Label N if protein stability index falls below 3; label Y in every other case.

G12M
N
P1Q
Y
G7E
Y
V10N
Y

# input for lookup
Does `G2Q` have a reported protein stability index of at least 3?
N
